These entries and their values trace back to patent US20220296595A1.

- TESTED ON: CDK2/CyclinE1 (Homo sapiens)
- Construct: purchased SignalChem C29-18G
- TEST SUMMARY: Assay for inhibition of CDK2/CyclinE1 (Caliper microfluidic kinase assay)
- Format: biochemical
- ASSAY SETUP: CDK2/CyclinE1, 100 μM ATP; read-out: CDK2 IC50

# COMPOUND, IC50
measured = [
    ("COc1nc(-c2nc(Nc3ccc(N4CCN(CCF)CC4=O)cn3)ncc2F)cc2c1ncn2C(C)C", "100 to 1000 nM"),
    ("CC1(C)COc2c(F)cc(-c3ccnc(Nc4ccc(N5CCCNC5=O)cn4)n3)cc21", "100 to 1000 nM"),
    ("CC(C)c1cnn2ccc(-c3ccnc(Nc4ccc(C(=O)N5CCC(O)CC5)cc4)n3)cc12", "< 10 nM"),
    ("Cc1nc2c(F)nc(-c3ccnc(Nc4ccc(N5CCCC(N(C)C)C5=O)cn4)n3)cc2n1C(C)C (stereo not drawn) [Synthetic Example 301]", "> 1000 nM"),
    ("CNC1CCN(c2ccc(Nc3nccc(-c4ccn5ncc(C(C)C)c5c4)n3)nc2)C(=O)C1 (single isomer, unassigned) [Synthetic Example 206]", "< 10 nM"),
    ("COc1nc(-c2ccnc(Nc3ccc(N4CCNCC4=O)nc3)n2)cc2c1ncn2C(C)C", "10 to 100 nM"),
    ("CC(C)c1cnn2ccc(-c3ccnc(Nc4ccc(C(=O)N5CC(N(C)C)C5)cc4)n3)cc12", "< 10 nM"),
    ("CC(C)(C)c1cnn2ccc(-c3ccnc(Nc4ccc(N5C(=O)C6CC5CN6)cn4)n3)cc12 (stereo not drawn)", "< 10 nM"),
    ("CC(C)n1cnc2c1CN(c1ccnc(Nc3ccc(N4CCN(S(C)(=O)=O)CC4=O)cn3)n1)CC2", "10 to 100 nM"),
]

###

- TESTED ON: CDK4/CyclinD1 (Homo sapiens, UniProt P11802)
- Construct: purchased Thermofisher PR8064A
- Sequence (P11802 whole entry): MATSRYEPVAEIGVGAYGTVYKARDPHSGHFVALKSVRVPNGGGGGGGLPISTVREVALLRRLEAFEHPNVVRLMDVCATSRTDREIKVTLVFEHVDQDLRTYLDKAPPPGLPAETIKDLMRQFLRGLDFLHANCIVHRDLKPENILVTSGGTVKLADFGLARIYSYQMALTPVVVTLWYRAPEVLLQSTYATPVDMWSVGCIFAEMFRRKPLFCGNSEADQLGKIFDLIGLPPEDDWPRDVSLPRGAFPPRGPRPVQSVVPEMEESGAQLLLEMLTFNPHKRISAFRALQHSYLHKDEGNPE
- Sequence (P24385 whole entry partner): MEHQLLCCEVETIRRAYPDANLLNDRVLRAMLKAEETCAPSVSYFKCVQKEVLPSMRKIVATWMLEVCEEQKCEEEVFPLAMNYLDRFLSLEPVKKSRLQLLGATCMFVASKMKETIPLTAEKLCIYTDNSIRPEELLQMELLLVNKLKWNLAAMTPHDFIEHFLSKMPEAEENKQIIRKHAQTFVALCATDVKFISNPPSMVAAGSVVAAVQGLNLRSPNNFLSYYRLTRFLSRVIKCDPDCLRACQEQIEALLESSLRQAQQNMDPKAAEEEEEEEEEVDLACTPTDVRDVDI
- TEST SUMMARY: Assay for inhibition of CDK4/CyclinD1 (Caliper microfluidic kinase assay)
- Type: biochemical
- ASSAY SETUP: CDK4/CyclinD1, 200 μM ATP
// IC50 lookup, one value per entry

# COMPOUND, IC50
records = [
    ("CN(C)C1CCCN(c2ccc(Nc3nccc(-c4cc(F)c5c(c4)C(C)(C)CO5)n3)nc2)C1=O (stereo not drawn)", "< 10 nM"),
    ("COc1nc(-c2nc(Nc3ccc(N4CCN(C5CCOCC5)CC4=O)cn3)ncc2F)cc2c1nc(C)n2C(C)C", "< 10 nM"),
    ("Cc1nc(Nc2ncc(F)c(-c3ccn4ncc(C(C)C)c4c3)n2)ccc1C(=O)N1CCC(NC2CC2)CC1", "10 to 100 nM"),
]

###

- TESTED ON: CDK4/CyclinD1 (Homo sapiens, UniProt P11802)
- Construct: purchased Thermofisher PR8064A
- TEST SUMMARY: Assay for inhibition of CDK4/CyclinD1 (Caliper microfluidic kinase assay)
- Assay type: biochemical
- ASSAY SETUP: CDK4/CyclinD1, 200 μM ATP
// IC50 lookup, one value per entry
MEASUREMENT TYPE: IC50

# MOLECULE, TESTED ON, MEASUREMENT TYPE, MEASUREMENT
data = [
    ("CC(C)c1cnn2ccc(-c3ccnc(Nc4ccc(N5CC(N(C)C)CC5=O)cn4)n3)cc12 (stereo not drawn) [Synthetic Example 39]", "CDK4/CyclinD1 (Homo sapiens, UniProt P11802)", "IC50", "< 0.01 µM"),
    ("CC(C)c1cnn2ccc(-c3ccnc(Nc4ccc(N5CCNCC5=O)cn4)n3)cc12 [compound 37]", "CDK4/CyclinD1 (Homo sapiens, UniProt P11802)", "IC50", "< 0.01 µM"),
    ("CC1(N)CCN(c2ccc(Nc3nccc(-c4cc(F)c5c(c4)C(C)(C)CO5)n3)nc2)C(=O)C1 (stereo not drawn) [compound 258]", "CDK4/CyclinD1 (Homo sapiens, UniProt P11802)", "IC50", "< 0.01 µM"),
]
